All values here come from patent US20230183352A1.

Overview of reported MFI across a group of binders:
# study system: T1, Claudin 18.2 (CLDN18.2), expressed on CHOS-CLDN 18.2 / HEK293-CLDN 18.2 / HCC827-CLDN 18.2 cells (human, UniProt P56856-2 1-261)
# T1 construct: whole, on cells; The species is not repeated for the CHOS-CLDN 18.2 cells; also called claudin-18A2
# measurement protocol: FACS, CHOS-CLDN18.2 cells, 10 µg/ml
Write the value as a bare number.

binder	MFI
QP024025 (antibody, human IgG1, V domains shown, also called IMAB362; 175D10(IMAB362)) VH: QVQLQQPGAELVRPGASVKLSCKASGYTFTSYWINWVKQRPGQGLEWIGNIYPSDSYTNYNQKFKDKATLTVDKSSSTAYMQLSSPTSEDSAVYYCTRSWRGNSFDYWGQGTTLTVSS VL: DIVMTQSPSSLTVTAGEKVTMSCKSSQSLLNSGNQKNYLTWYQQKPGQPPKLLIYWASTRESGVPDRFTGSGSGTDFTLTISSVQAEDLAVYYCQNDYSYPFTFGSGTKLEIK	145000

Attention now turns to another entry.
Consider the binder QP14641461 (antibody, human IgG1, kappa, V domains shown, Humanized from QP207208) VH: EVQLVQSGAEVKKPGASVKVSCKASGYTFTSYIMHWVRQAPGQGLEWIGYINPYNDGTKYNEKFKGRVTLTRDKSTSTVYMELSSLRSEDTAVYYCARLGFTTRNAMDYWGQGTLVTVSS VL: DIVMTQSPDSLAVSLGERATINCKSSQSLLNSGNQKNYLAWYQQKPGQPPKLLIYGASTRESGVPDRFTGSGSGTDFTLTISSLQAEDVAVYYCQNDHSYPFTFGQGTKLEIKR and give its recorded MFI.
721000
